assay: Absorption and fluorescence spectroscopy of dyes; format: physicochemical; details: Table 3; 10 mM HEPES pH 7.3
Structures can show the parent of a compound that is named as a salt.
Hi, to clarify the labels: satisfied covers λmax from 500 nm upward, not satisfied covers anything below 500 nm.

## Task Quick check: does CN(C)c1ccc2c(c1)Oc1cc(O)ccc1C21OC(=O)c2ccccc21 (centres unmarked) [dimethyl rhodol, reference compound] have λmax greater than or equal to 500 nm?
## Result satisfied

## Task Quick check: does Cc1cc(=O)oc2cc(N(C)C)ccc12 [Coumarin 461, reference compound] have λmax greater than or equal to 500 nm?
## Result not satisfied

## Task Quick check: does Cc1cc(=O)oc2cc(N3CCC3)ccc12 [Example 49] have λmax greater than or equal to 500 nm?
## Result not satisfied

## Task Quick check: does O=C(O)c1ccccc1-c1c2ccc(=O)cc-2oc2cc(N3CCC3)ccc12 [Example 59] have λmax greater than or equal to 500 nm?
## Result satisfied

## Task Quick check: does O=C(O)c1cc2ccc(N3CCC3)cc2oc1=O [Example 51] have λmax greater than or equal to 500 nm?
## Result not satisfied

## Task Quick check: does CC1(C)C2=CC(=[N+]3CCC3)C=CC2=C(c2ccccc2C(=O)[O-])c2ccc(N3CCC3)cc21 [Example 40] have λmax greater than or equal to 500 nm?
## Result satisfied

## Task Quick check: does c1cc2nc3ccc(=[N+]4CCC4)cc-3oc2cc1N1CCC1 [Example 61, trifluoroacetate] have λmax greater than or equal to 500 nm?
## Result satisfied

---

experiment: Absorption and fluorescence spectroscopy of dyes; assay type: physicochemical; conditions: Table 3; 10 mM HEPES pH 7.3
This section presents compounds with their documented ε values.

Please review the entries below; each comes with its answer.
Compound	ε
Cc1cc(=O)oc2cc(N(C)C)ccc12 [Coumarin 461, reference compound]	18,000 M^−1 cm^−1
CC1(C)C2=CC(=[N+]3CCC3)C=CC2=C(c2ccccc2C(=O)[O-])c2ccc(N3CCC3)cc21	99,000 M^−1 cm^−1
CN(C)c1ccc2cc3ccc(N(C)C)cc3nc2c1 [Acridine Orange, reference compound]	50,000 M^−1 cm^−1
O=C(O)c1ccccc1-c1c2ccc(=O)cc-2oc2cc(N3CCC3)ccc12	59,000 M^−1 cm^−1

Consider now this further compound.
## Task Looking for the measured ε of CCN(CC)c1ccc2nc3ccc(=[N+](CC)CC)cc-3oc2c1.[O-][Cl+3]([O-])([O-])[O-] [Oxazine 1, reference compound] , can you help?
## Result 111,000 M^−1 cm^−1

---

Assay: Absorption and fluorescence spectroscopy of dyes
Type: physicochemical
Settings: Table 1; 10 mM HEPES pH 7.3
Description: Phosphate buffered saline (PBS) was at pH 7.4 unless otherwise noted. Spectroscopy was performed using 1-cm path length, 3.5-mL quartz cuvettes from Starna Cells or 1-cm path length, 1.0-mL quartz microcuvettes from Hellma. […] Absorption spectra were recorded on a Cary Model 100 spectrometer (Varian); reported values for extinction coefficients (ε) are averages (n=3). Fluorescence spectra were recorded on a Cary Eclipse fluorometer (Varian). […]
Result Type: λem (nm)
The response must be a number in nm with no trailing unit.

Please review the entries below; each comes with its answer.
Compound	Observed Measurement
CC1(C)C2=CC(=[N+]3CCC3)C=CC2=C(c2ccccc2C(=O)[O-])c2ccc(N3CCC3)cc21	631
CN(C)C1CN(c2ccc3c(-c4ccccc4C(=O)[O-])c4ccc(N5CC(N(C)C)C5)cc4[o+]c3c2)C1	565
O=C(O)CC1CN(c2ccc3c(-c4ccccc4C(=O)[O-])c4ccc(=[N+]5CC(CC(=O)O)C5)cc-4oc3c2)C1 (stereo not drawn)	572
O=C([O-])c1ccccc1-c1c2ccc(=[N+]3CC(F)(F)C3)cc-2oc2cc(N3CC(F)(F)C3)ccc12	549
O=C([O-])c1ccccc1-c1c2ccc(=[N+]3CC(C(=O)O)C3)cc-2oc2cc(N3CC(C(=O)O)C3)ccc12 (stereo not drawn)	568

## Task Looking for the measured λem of COC1CN(c2ccc3c(-c4ccccc4C(=O)[O-])c4ccc(=[N+]5CC(OC)C5)cc-4oc3c2)C1 (stereo not drawn) , can you help?
## Result 564

---

This section presents compounds with their documented λmax values.
Experiment: Absorption and fluorescence spectroscopy of dyes
Assay type: physicochemical
Details: Table 1; 10 mM HEPES pH 7.3
Experimental: Phosphate buffered saline (PBS) was at pH 7.4 unless otherwise noted. Spectroscopy was performed using 1-cm path length, 3.5-mL quartz cuvettes from Starna Cells or 1-cm path length, 1.0-mL quartz microcuvettes from Hellma. […] Absorption spectra were recorded on a Cary Model 100 spectrometer (Varian); reported values for extinction coefficients (ε) are averages (n=3). Fluorescence spectra were recorded on a Cary Eclipse fluorometer (Varian). […]
The response must be a number in nm with no trailing unit.

Compound	λmax, nm
O=C([O-])c1ccccc1-c1c2ccc(=[N+]3CC(F)(F)C3)cc-2oc2cc(N3CC(F)(F)C3)ccc12 [Example 9]	525

## Task Looking for the measured λmax of CC1(C)CN(c2ccc3c(-c4ccccc4C(=O)[O-])c4ccc(=[N+]5CC(C)(C)C5)cc-4oc3c2)C1 [Example 8] , can you help?
## Result 550

## Task Looking for the measured λmax of CC1(C)C2=CC(=[N+]3CC(F)(F)C3)C=CC2=C(c2ccccc2C(=O)[O-])c2ccc(N3CC(F)(F)C3)cc21 [Example 41] , can you help?
## Result 585

## Task Looking for the measured λmax of O=C(O)CC1CN(c2ccc3c(-c4ccccc4C(=O)[O-])c4ccc(=[N+]5CC(CC(=O)O)C5)cc-4oc3c2)C1 (stereo not shown) [Example 17] , can you help?
## Result 549

## Task Looking for the measured λmax of C[Si]1(C)C2=CC(=[N+]3CC(F)C3)C=CC2=C(c2ccccc2C(=O)[O-])c2ccc(N3CC(F)C3)cc21 (stereo not shown) [Example 31] , can you help?
## Result 635

## Task Looking for the measured λmax of N#CC1CN(c2ccc3c(-c4ccccc4C(=O)[O-])c4ccc(=[N+]5CC(C#N)C5)cc-4oc3c2)C1 (stereo not shown) [Example 12] , can you help?
## Result 533

---

This section presents compounds with their documented ϕ values.
assay: Quantum yield measurement (Quantaurus-QY spectrometer); format: physicochemical; conditions: Table 3; 10 mM HEPES pH 7.3
Where a name gives a salt, the structure may show the parent alone.
The reply should be a number, written without any unit.

Please review the entries below; each comes with its answer.
Compound	Result Type	Observed Measurement
Cc1cc(=O)oc2cc(N3CCC3)ccc12 [Example 49]	ϕ	0.96
CC1(C)C2=CC(=[N+]3CCC3)C=CC2=C(c2ccccc2C(=O)[O-])c2ccc(N3CCC3)cc21 [Example 40]	ϕ	0.67
CCN(CC)c1ccc2nc3ccc(=[N+](CC)CC)cc-3oc2c1.[O-][Cl+3]([O-])([O-])[O-] [Oxazine 1, reference compound]	ϕ	0.07
c1cc2cc3ccc(N4CCC4)cc3nc2cc1N1CCC1 [Example 60, 3,6-Di(azetidin-1-yl)acridine]	ϕ	0.52
c1cc2nc3ccc(=[N+]4CCC4)cc-3oc2cc1N1CCC1 [Example 61, trifluoroacetate]	ϕ	0.24
O=C(O)c1cc2ccc(N3CCC3)cc2oc1=O [Example 51]	ϕ	0.84
O=C(O)c1ccccc1-c1c2ccc(=O)cc-2oc2cc(N3CCC3)ccc12 [Example 59]	ϕ	0.85
C[Si]1(C)C2=CC(=[N+]3CCC3)C=CC2=C(c2ccccc2C(=O)[O-])c2ccc(N3CCC3)cc21 [Example 30]	ϕ	0.54

## Task Looking for the measured ϕ of CN(C)c1ccc2cc3ccc(N(C)C)cc3nc2c1 [Acridine Orange, reference compound] , can you help?
## Result 0.21

---

This section presents compounds with their documented ϕ (quantum yield) values.
assay: Quantum yield measurement (Quantaurus-QY spectrometer); format: physicochemical; conditions: aqueous buffer
The reply should be a number, written without any unit.

Please review the entries below; each comes with its answer.
Compound	Observed Measurement
CN(C)c1ccc2cc3ccc(N(C)C)cc3nc2c1 [Acridine Orange, reference compound]	0.21
CN(C)c1ccc2c(-c3ccccc3C(=O)[O-])c3ccc(N(C)C)cc3[o+]c2c1 [TMR, tetramethylrhodamine, reference compound]	0.41
Cl.N=c1ccc2c(-c3ccccc3C(=O)O)c3ccc(N)cc3oc-2c1 [rhodamine 110, reference compound]	0.88

## Task Looking for the measured ϕ (quantum yield) of O=C(O)c1ccccc1-c1c2ccc(=O)cc-2oc2cc(N3CCC3)ccc12 , can you help?
## Result 0.85

---

This section presents compounds with their documented increase in quantum yield / brightness relative to parent N,N-dialkyl dye values.
experiment: Quantum yield measurement (Quantaurus-QY spectrometer); assay type: physicochemical; conditions: azetidine-substituted vs parent fluorophore
Counter-ions that a name gives are not always drawn.
The response must be a number in fold with no trailing unit.

Please review the entries below; each comes with its answer.
Compound	Observed Measurement
c1cc2cc3ccc(N4CCC4)cc3nc2cc1N1CCC1 [Example 60, 3,6-Di(azetidin-1-yl)acridine]	2.5
c1cc2nc3ccc(=[N+]4CCC4)cc-3oc2cc1N1CCC1 [Example 61, trifluoroacetate]	3.4

## Task Looking for the measured increase in quantum yield / brightness relative to parent N,N-dialkyl dye of O=C(O)c1ccccc1-c1c2ccc(=O)cc-2oc2cc(N3CCC3)ccc12 [Example 59] , can you help?
## Result 4
